Target: Akt3 (Homo sapiens, UniProt Q9Y243)
Sequence (Q9Y243 whole entry): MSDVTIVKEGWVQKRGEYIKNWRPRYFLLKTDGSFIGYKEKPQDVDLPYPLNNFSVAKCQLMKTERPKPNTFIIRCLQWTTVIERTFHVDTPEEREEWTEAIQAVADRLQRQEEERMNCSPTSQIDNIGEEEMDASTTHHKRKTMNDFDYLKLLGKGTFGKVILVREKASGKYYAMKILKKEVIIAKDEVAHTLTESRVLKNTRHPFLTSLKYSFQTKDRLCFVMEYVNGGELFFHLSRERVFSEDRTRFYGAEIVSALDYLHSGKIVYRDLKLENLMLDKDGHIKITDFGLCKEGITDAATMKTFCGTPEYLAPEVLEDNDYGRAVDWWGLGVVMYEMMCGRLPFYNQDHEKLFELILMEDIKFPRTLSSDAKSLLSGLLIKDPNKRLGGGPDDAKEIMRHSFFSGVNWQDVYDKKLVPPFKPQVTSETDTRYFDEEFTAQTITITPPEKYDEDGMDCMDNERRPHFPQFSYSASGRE
Test: STK HTRF KinEASE activity-based assay (IC50)
Details: HTRF IC50 Akt3, Mean, mean of replicates
value-type: IC50 (µM)
Give just the numeric value; µM need not be written.

Item C=CC(=O)Nc1ccc2[nH]c(=O)n(C3CCN(Cc4ccc(-c5ncc(C(=O)NC)cc5-c5ccccc5)cc4)CC3)c2c1 has what recorded IC50?
5.75

Item C=CC(=O)Nc1ccc2[nH]c(=O)n(C3CCN(Cc4ccc(-c5ncc(C(=O)Nc6cnn(C)c6)cc5-c5ccccc5)cc4)CC3)c2c1 has what recorded IC50?
3.54

Item C=CC(=O)Nc1ccc2[nH]c(=O)n(C3CCN(Cc4ccc(-c5ncc(Cc6cccc(N)c6)cc5-c5ccccc5)cc4)CC3)c2c1 has what recorded IC50?
2.11

Item C=CC(=O)Nc1ccc2[nH]c(=O)n(C3CCN(Cc4ccc(-c5ncc(Cc6cn[nH]c6)cc5-c5ccccc5)cc4)CC3)c2c1 has what recorded IC50?
0.356

Item C=CC(=O)Nc1ccc2[nH]c(=O)n(C3CCN(Cc4ccc(-c5ncc(C(=O)Nc6cccnc6)cc5-c5ccccc5)cc4)CC3)c2c1 has what recorded IC50?
3.05
